Tested on: HS 578T breast
ASSAY DETAILS: NCI-60 one-dose screen, 48 h
CONDITION LABEL: 10 µM unless noted
The panel holds about 83,000 compounds, 20% with a hit somewhere; the sample as a whole holds those more often. Active and inactive are the calls of the source. The calls were made as follows: active = growth percent below 10; inactive = the rest.
Classes used: active, inactive

COMPOUND: CCN(CC)c1cc(/C=C/c2ccc(OC)c(OC)c2)nc2cc(F)c(F)cc12
LABEL VALUE: active

COMPOUND: CC/C=C\C/C=C\C[C@H](O)C/C=C1/C(=O)C=C[C@H]1C/C=C\CCC(=O)OC
LABEL VALUE: inactive

COMPOUND: O=C(Nc1ccc(OCc2nnc(-c3ccc(Cl)cc3)o2)c(F)c1)Nc1ccc(Cl)c(Cl)c1
LABEL VALUE: inactive

COMPOUND: COc1cc(/C=C\c2cc(OC)c(OC)c(OC)c2)cc(N/C=C\C(=O)c2c[nH]c3ccccc23)c1OC
LABEL VALUE: inactive

COMPOUND: O=c1oc2cc(OS(=O)(=O)c3ccc(F)cc3)ccc2c2c1CCCCC2
LABEL VALUE: inactive

COMPOUND: CC1Cc2c(N(C)C)ncnc2N(C)c2ccc(O)cc21 (stereo unspecified)
LABEL VALUE: inactive

COMPOUND: COc1cc(Br)c(OC)cc1Br
LABEL VALUE: inactive

COMPOUND: CCN1C(=O)N(CC)C2C1NN=c1s/c(=C\c3ccccn3)c(=O)n12 (stereo unspecified)
LABEL VALUE: active

COMPOUND: CCC(=O)Oc1ccc2c(c1)CC[C@@H]1[C@@H]2CC[C@]2(C)C[C@H](OC(=O)CC)C[C@@H]12
LABEL VALUE: inactive

COMPOUND: Cn1c(C(N)=O)cc2c1-c1nc(NC3CCCCC3)ncc1CCC2
LABEL VALUE: inactive

COMPOUND: O=C(CCCn1c(=O)c2sc3ccccc3c2n2nnc(-c3ccccc3)c12)NCCc1cnc[nH]1
LABEL VALUE: inactive

COMPOUND: O=C1Nc2cc(Cl)ccc2Oc2cc(Oc3ccccc3)ccc21
LABEL VALUE: inactive

COMPOUND: CCOc1ccc(/C=C/C=N/NC(N)=S)cc1
LABEL VALUE: inactive

COMPOUND: NS(=O)(=O)c1ccc(NCC(=O)Nc2ccc(-c3nc4ccccc4s3)cc2)cc1
LABEL VALUE: inactive

COMPOUND: O=C1CCCCC=C1C[N+](=O)[O-]
LABEL VALUE: inactive

COMPOUND: O=C(CSc1nc(-c2ccc(Cl)cc2)cn1-c1ccc(Cl)cc1)c1ccc(Br)cc1
LABEL VALUE: inactive

COMPOUND: O=C1CCCCN1CCCCC#Cc1ccccc1C#Cc1ccc([N+](=O)[O-])cc1
LABEL VALUE: inactive

COMPOUND: COc1ccc(/C=C(\C#N)c2ccc([N+](=O)[O-])cc2)c2ccccc12
LABEL VALUE: inactive

COMPOUND: CC(C)(C)OC(=O)N[C@@H](Cc1ccccc1)C(=O)N(Cc1ccccc1)C1(C(=O)NCc2ccccc2)CCN(Cc2ccccc2)CC1
LABEL VALUE: inactive

COMPOUND: CC(=O)Nc1nc(C(=O)N2N=C(C)/C(=C/c3ccc(Cl)cc3)C2=O)cs1
LABEL VALUE: inactive

COMPOUND: Nc1c(C(=O)Nc2cccc(C(F)(F)F)c2)sc2nc3c(cc12)CCCCCC3
LABEL VALUE: inactive

Where do these numbers come from? They come from PubChem BioAssay (NCI).
